So I've got a bunch of compounds here, and I need their MIC values.
system: Candida parapsilosis; assay: Antifungal activity against Candida parapsilosis isolate CP2 measured after 48 hrs by CLSI M27-A3 protocol based method; type: functional; settings: Lodderomyces parapsilosis, isolate CP2, 48 h
Numbers only, in µM.

Look over these answered cases.
CCCCCCCCNCC(O)(Cn1cncn1)c1ccc(F)cc1F (stereo unspecified) :: 0.33
CCCCCCCCCCCCCCNCC(O)(Cn1cncn1)c1ccc(F)cc1F (stereo unspecified) :: 2.2

Please supply MIC for each of the following items, keeping them in order.
1. CCCCCCCCCCNCC(O)(Cn1cncn1)c1ccc(F)cc1F (stereo unspecified)
2. CCCCCCCCCCCCNCC(O)(Cn1cncn1)c1ccc(F)cc1F (stereo unspecified)
3. CCCCCCNCC(O)(Cn1cncn1)c1ccc(F)cc1F (stereo unspecified)

Ans.
1: 0.3; 2: 0.57; 3: 2.9

---

test system: Aspergillus nidulans; experiment: Antifungal activity against Aspergillus nidulans ATCC 38163 measured after 48 hrs by CLSI M38-A2 protocol based method; type: functional; settings: ATCC 38163, 48 h
Outcome measure: MIC (µM)
Numbers only, in µM.

Look over these answered cases.
CCCCCCCCCCCCCCNCC(O)(Cn1cncn1)c1ccc(F)cc1F (centres undefined) :: 8.7
C[C@@H](c1ncncc1F)[C@](O)(Cn1cncn1)c1ccc(F)cc1F :: 0.34
CCCCCCCCCCCCCCCCNCC(O)(Cn1cncn1)c1ccc(F)cc1F (centres undefined) :: 8.1
CCCCCCCCNCC(O)(Cn1cncn1)c1ccc(F)cc1F (centres undefined) :: 5.3
CCCCCCCCCCCCNCC(O)(Cn1cncn1)c1ccc(F)cc1F (centres undefined) :: 4.6
CCCCCCCCCCNCC(O)(Cn1cncn1)c1ccc(F)cc1F (centres undefined) :: 2.5
CC(C)c1ccc(NCC(O)(Cn2cncn2)c2ccc(F)cc2F)cc1 (centres undefined) :: 20.9
CCCCCCCCN(CCCCCCCC)CC(O)(Cn1cncn1)c1ccc(F)cc1F (centres undefined) :: 32.7

Now consider the entry below.
Qu. Using known records, supply MIC for CCCCCOCCCCCCNCC(O)(Cn1cncn1)c1ccc(F)cc1F (centres undefined)
Ans. 18.4

---

test system: Candida parapsilosis; experiment: Antifungal activity against Candida parapsilosis ATCC 22019 measured after 48 hrs by CLSI M27-A3 protocol based method; assay type: functional; conditions: Lodderomyces parapsilosis, ATCC 22019, 48 h
Outcome measure: MIC

Look over these answered cases.
CCCCCCNCC(O)(Cn1cncn1)c1ccc(F)cc1F (centres undefined) :: 2.9 µM
CC(C)c1ccc(NCC(O)(Cn2cncn2)c2ccc(F)cc2F)cc1 (centres undefined) :: 20.9 µM
CCCCCCCCCCNCC(O)(Cn1cncn1)c1ccc(F)cc1F (centres undefined) :: 0.08 µM
OC(CNC1CCCCCCC1)(Cn1cncn1)c1ccc(F)cc1F (centres undefined) :: 10.7 µM
OCCCCCCNCC(O)(Cn1cncn1)c1ccc(F)cc1F (centres undefined) :: > 88.3 µM
CCCCCCN(CCCCCC)CC(O)(Cn1cncn1)c1ccc(F)cc1F (centres undefined) :: 74.1 µM
CCCCCCCCCCCCNCC(O)(Cn1cncn1)c1ccc(F)cc1F (centres undefined) :: 1.1 µM
CCCCCCCCCCCCCCCCNCC(O)(Cn1cncn1)c1ccc(F)cc1F (centres undefined) :: 1 µM

Please supply MIC for each of the following items, keeping them in order.
1. CCCCCCCCCCCCCCNCC(O)(Cn1cncn1)c1ccc(F)cc1F (centres undefined)
2. CCCCCOCCCCCCNCC(O)(Cn1cncn1)c1ccc(F)cc1F (centres undefined)
3. C[C@@H]1[C@H](O)[C@@H](C)/C=C/C=C/C=C/C=C/C=C/C=C/C=C/[C@H](O[C@@H]2O[C@H](C)[C@@H](O)[C@H](N)[C@@H]2O)C[C@@H]2O[C@](O)(C[C@@H](O)C[C@@H](O)[C@H](O)CC[C@@H](O)C[C@@H](O)CC(=O)O[C@H]1C)C[C@H](O)[C@H]2C(=O)O
4. CCCCCCCCNCC(O)(Cn1cncn1)c1ccc(F)cc1F (centres undefined)
5. CCCCCCCCN(CCCCCCCC)CC(O)(Cn1cncn1)c1ccc(F)cc1F (centres undefined)
6. CC[C@H](C)C[C@H](C)CCCCCCCCC(=O)N[C@H]1C[C@@H](O)[C@@H](NCCN)NC(=O)[C@@H]2[C@@H](O)CCN2C(=O)[C@H]([C@H](O)CCN)NC(=O)[C@H]([C@H](O)[C@@H](O)c2ccc(O)cc2)NC(=O)[C@@H]2C[C@@H](O)CN2C(=O)[C@H]([C@@H](C)O)NC1=O

Ans.
1: 1.1 µM; 2: 0.57 µM; 3: 2.1 µM; 4: 0.16 µM; 5: 2 µM; 6: 1.6 µM
